- Study System: HLA-A*02:01 (Homo sapiens, UniProt P04439, D140Y/D185E/D98H/E176V/E277Q/G131W/G231S/I119V/I121R/I166T/I218V/L300P/L318F/N151K/N90K/P208A/P217A/Q86G/Q94H/R138H/R169H/T345S)
- Assay Method Text: MHC binding assay (UV-ligand exchange, β2m ELISA, peptide exchange yield)
- Condition Description: binding to HLA-A*02:01
Value Type: Peptide Exchange (MHC class I binding score, peptide exchange yield)

190 (VVMGTVPRL; listed as Homo sapiens) [compound 190]    “+++” (>50 = +++)
23 (ALYLTEVFL; listed as Homo sapiens) [compound 23]    “++++” (>75% = ++++)
41 (FLDPSLDPLL; listed as Homo sapiens) [compound 41]    “+++” (>50 = +++)
162 (SMKDDLENV; listed as Homo sapiens) [compound 162]    “++” (>20% = ++)
186 (VMDPTKILI; listed as Homo sapiens) [compound 186]    “++++” (>75% = ++++)

Data request: For the substance 209 (ILQAELPSL; listed as Homo sapiens) [compound 209] , report Peptide Exchange (MHC class I binding score, peptide exchange yield).
Data returned: “+++” (>50 = +++)

Data request: Note down Peptide Exchange (MHC class I binding score, peptide exchange yield) recorded for 132 (LVYEAIIMV; listed as Homo sapiens) [compound 132]
Data returned: “+++” (>50 = +++)

Data request: Supply measured Peptide Exchange (MHC class I binding score, peptide exchange yield) of 293 (ALDIMIPMV; listed as Homo sapiens) [compound 293] in your reply.
Data returned: “+++” (>50 = +++)

Data request: Tell me Peptide Exchange (MHC class I binding score, peptide exchange yield) reported for 193 (YLDLSNNRL; listed as Homo sapiens) [compound 193]
Data returned: “+++” (>50 = +++)

Data request: Supply recorded Peptide Exchange (MHC class I binding score, peptide exchange yield) for 238 (GLVETELQL; listed as Homo sapiens) [compound 238] here.
Data returned: “+++” (>50 = +++)

Data request: Give recorded Peptide Exchange (MHC class I binding score, peptide exchange yield). 315 (LVYEAPETV; listed as Homo sapiens) [compound 315]
Data returned: “+++” (>50 = +++)

Data request: Determine its reported Peptide Exchange (MHC class I binding score, peptide exchange yield): 83 (GQGEVLVYV; listed as Homo sapiens) [compound 83]
Data returned: “+++” (>50 = +++)

Data request: State its Peptide Exchange (MHC class I binding score, peptide exchange yield): 247 (KLKDRLPSI; listed as Homo sapiens) [compound 247]
Data returned: “++” (>20% = ++)
